assay-target: Muscarinic acetylcholine receptor M1 (Rattus norvegicus) (UniProt P08482)
Sequence (P08482 whole entry, looked up): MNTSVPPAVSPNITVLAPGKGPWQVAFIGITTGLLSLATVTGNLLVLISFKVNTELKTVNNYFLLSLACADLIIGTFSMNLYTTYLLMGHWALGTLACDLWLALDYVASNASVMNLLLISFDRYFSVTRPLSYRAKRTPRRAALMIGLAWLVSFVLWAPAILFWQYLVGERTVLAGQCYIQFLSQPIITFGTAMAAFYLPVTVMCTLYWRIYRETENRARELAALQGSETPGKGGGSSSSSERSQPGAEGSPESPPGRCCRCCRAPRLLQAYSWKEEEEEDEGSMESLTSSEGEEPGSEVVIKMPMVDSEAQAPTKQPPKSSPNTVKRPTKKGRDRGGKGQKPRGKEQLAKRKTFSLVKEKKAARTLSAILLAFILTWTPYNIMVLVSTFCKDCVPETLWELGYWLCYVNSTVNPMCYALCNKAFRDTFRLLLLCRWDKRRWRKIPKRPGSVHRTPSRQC
assay-name: qHTS Assay for Antagonists of Acetylcholine Muscarinic M1 Receptor: Kinetic Measurement of Intracellular Calcium Response (AID 943); further: nearly all actives have a fitted effect of over 75% in size
condition-context: M1-expressing cells, kinetic intracellular calcium fluorescence; series mostly up to 35.3 µM
Results filed as inconclusive are left out. The source made the active and inactive calls. The call rests on the fitted dose curve; in most records, active means well fitted inhibition curve with a large enough effect; inconclusive means small, poorly fitted or top-dose-only effect; inactive means no such curve, though single readings can be large or run the other way.
Returns: one label drawn from label 1 (active), label 0 (inactive)

# count of solved cases: 3
compound | group-label
Cc1cc(C(C)(C)C)cc(C)c1CC1=NCCN1 | label 1
CCCCCCCCC(=O)NCc1ccc(O)c(OC)c1 | label 0
CN1[C@@H]2CC[C@H]1CC(OC(=O)c1cc(Cl)cc(Cl)c1)C2 (some centres undefined) | label 1

Okay, next one:
Task: Returns: the outcome recorded for O=C(O)c1nn(Cc2ccc(Cl)cc2Cl)c2ccccc12 in this assay.
Output: label 0

###

assay-name: qHTS of pediatric cancer cell lines to identify multiple opportunities for drug repurposing: Confirmatory screen for BT-37 cells (AID 1347117);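 further: viability measured after 48 h of compound exposure; nearly all actives have a fitted effect of over 55% in size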
condition-context: BT-37 pediatric cancer cells, viability; series mostly up to 45.9 µM
Results filed as inconclusive are left out. Activity calls are given as the source filed them. Calls follow the shape of the dose curve; as a rule, active = well fitted cell-killing curve with a large enough effect; inconclusive = small, poorly fitted or top-dose-only effect; inactive = no such curve, though single readings can be large or run the other way.
Returns: one label drawn from label 1 (active), label 0 (inactive)

# count of solved cases: 2
molecule | group-label
COC(=O)C1=CCCN(C)C1 | label 0
Cc1ccc([N+](=O)[O-])[c]2c1[O][Hg]2 | label 1

Task: Returns: the outcome recorded for ClC1=C(Cl)C2(Cl)C(CBr)CC1(Cl)C2(Cl)Cl (configuration not stated) in this assay.
Output: label 0

Task: Returns: the outcome recorded for CCc1ccc(C2CCNCC2)cc1 in this assay.
Output: label 0

Task: Returns: the outcome recorded for CC[n+]1c(-c2ccccc2)c2cc(N)ccc2c2ccc(N)cc21 in this assay.
Output: label 1

Task: Returns: the outcome recorded for COc1ccc2c(C(=O)c3ccc(Cl)cc3)c(C)n(CC(=O)O)c2c1 in this assay.
Output: label 0

Task: Returns: the outcome recorded for CN(C)C(=S)SSC(=S)N(C)C in this assay.
Output: label 1

###

In this section, each of the compounds is paired with its reported efficacy.
condition-context: Ebola virus entry assay, green fluorescence channel
Entries with a potency or affinity are not part of this list.
Kindly answer with a numeric value in %, unit omitted.

Field: example entries. Status: answers known.
compound | measured-parameter | recorded-measurement
OC[C@H]1O[C@@H](n2cnc3c(=S)nc[nH]c32)[C@H](O)[C@@H]1O | efficacy | 23.6
CCC(C(=O)OCCOCCN(CC)CC)c1ccccc1 (stereo not drawn) | efficacy | 61.4
O=C(c1ccc(F)cc1)C1CCN(CCn2c(=O)[nH]c3ccccc3c2=O)CC1 | efficacy | 78.1
C#CC1(O)CC[C@H]2[C@@H]3CCC4=CCCC[C@@H]4[C@H]3CC[C@@]21C (stereo partly drawn) | efficacy | 7.54
c1cc(CN2CCCCC2)cc(OCCCNc2nc3ccccc3s2)c1 | efficacy | 69.1
O=c1c(-c2ccccc2)c1-c1ccccc1 | efficacy | 22
CN(C)CCN(Cc1ccc(Cl)cc1)c1ccccn1 | efficacy | 58.3
NCc1ccccc1Sc1ccccc1CO | efficacy | 118
CCC(=O)Oc1ccc2c(c1)CC[C@@H]1[C@@H]2CC[C@@]2(C)[C@H]1C[C@@H](OC(=O)CC)[C@@H]2OC(=O)CC | efficacy | -23.4
CC1=C(C(=O)O)N2C(=O)[C@@H](NC(=O)[C@H](N)C3=CCC=CC3)[C@H]2SC1 | efficacy | -21.8

Task: Record request: efficacy value, item CNC(=O)c1cnn(-c2nc(N)c3ncn([C@@H]4O[C@H](CO)[C@@H](O)[C@H]4O)c3n2)c1
Output: 20.7

Task: Record request: efficacy value, item O=C1[C@H]2CCCC[C@H]2C(=O)N1CCCCN1CCN(c2nsc3ccccc23)CC1
Output: 104

Task: Record request: efficacy value, item CCCCC(CC)COC(=O)C(C#N)=C(c1ccccc1)c1ccccc1 (stereo not drawn)
Output: 53.9

Task: Record request: efficacy value, item COc1cc2c(cc1OC)-c1cc(=Nc3c(C)cc(C)cc3C)n(C)c(=O)n1CC2
Output: 20.5

Task: Record request: efficacy value, item N[C@H](C(=O)O)[C@@H](O)c1ccc(O)c(O)c1
Output: 53.3

###

condition-context: Ebola virus entry assay, blue channel fluorescence
Calls of active or inactive are those of the source. The rule behind the calls is not given here.
Returns: one label drawn from active, inactive

# count of solved cases: 4
compound | group-label
Cc1cc(O)c(C)c(C)c1O | inactive
C[C@@H]1C[C@H]2[C@@H]3CCC4=CC(=O)C=C[C@]4(C)[C@@]3(Cl)[C@@H](O)C[C@]2(C)[C@@]1(OC(=O)c1ccco1)C(=O)CCl | active
CCN1C(=O)c2ccccc2C1Nc1ccc(OCCN2CCCCC2)cc1 (stereo not given) | active
CCOC(=O)N1CCC(Nc2ccc(Cl)cc2N)CC1 | active

Task: Returns: the outcome recorded for Cc1c(C)n(Cc2ccccc2)c2ccc(C(=O)OCCN(C)C)cc12 in this assay.
Output: active

###

assay-target: Cytochrome P450 3A4 (Homo sapiens) (UniProt P08684)
Sequence (P08684 whole entry, looked up): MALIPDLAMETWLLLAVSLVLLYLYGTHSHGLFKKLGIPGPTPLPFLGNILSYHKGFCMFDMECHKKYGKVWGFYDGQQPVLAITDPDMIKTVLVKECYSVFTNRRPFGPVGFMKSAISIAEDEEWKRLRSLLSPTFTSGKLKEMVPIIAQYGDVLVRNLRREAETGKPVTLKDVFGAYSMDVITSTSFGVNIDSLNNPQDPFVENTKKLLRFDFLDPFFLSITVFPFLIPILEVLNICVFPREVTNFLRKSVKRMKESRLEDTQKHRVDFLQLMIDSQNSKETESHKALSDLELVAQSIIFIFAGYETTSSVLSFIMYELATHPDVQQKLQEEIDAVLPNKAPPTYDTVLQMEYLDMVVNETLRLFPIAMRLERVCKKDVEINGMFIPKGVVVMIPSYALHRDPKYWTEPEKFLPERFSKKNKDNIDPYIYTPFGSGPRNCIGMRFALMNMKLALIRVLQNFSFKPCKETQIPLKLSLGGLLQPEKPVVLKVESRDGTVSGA
assay-name: Cytochrome P450 family 3 subfamily A member 4 (CYP3A4) small molecule antagonists: luciferase qHTS assay (AID 1645841); further: nearly all actives have a fitted effect of over 45% in size
condition-context: P450-Glo CYP3A4 enzyme assay, luciferin luminescence; series mostly up to 57.4 µM
Results filed as inconclusive are left out. Calls of active or inactive are those of the source. Calls follow the shape of the dose curve; as a rule, active = well fitted inhibition curve with a large enough effect in the repeat runs; inconclusive = weak or mixed curves; inactive = no such curve, though single readings can be large or run the other way.
Returns: one label drawn from Yes = active, No = inactive

sample-smiles | group-label
CN(C)CCc1c[nH]c2ccccc12 | No
C[C@H]1CNCCc2ccc(Cl)cc21 | No
C[C@]12C=CC(=O)C=C1CC[C@@H]1[C@@H]2CC[C@@]2(C)[C@H]1CC[C@]2(C)O | No
CCCN(CCC)CCc1c[nH]c2ccccc12 | No
COP(=S)(OC)Oc1ccc(Sc2ccc(OP(=S)(OC)OC)cc2)cc1 | Yes
CCC1(CC)C(=O)NC(=O)NC1=O | No

Okay, next one:
Task: Returns: the outcome recorded for NC(=O)OCCCc1ccccc1 in this assay.
Output: No

###

System: ICS
assay-name: qHTS profiling for inhibitors of Plasmodium falciparum proliferation (AID 504749); further: nearly all actives have a fitted effect of over 60% in size
condition-context: P. falciparum in erythrocytes, SYBR Green DNA, 72 h; series mostly up to 28.7 µM
Results filed as inconclusive are left out. Active and inactive are the calls of the source. Calls come from the whole dose curve; as a rule, active = well fitted inhibition curve with a large enough effect; inconclusive = small, poorly fitted or top-dose-only effect; inactive = flat fitted curve, though single readings scatter.
Returns: one label drawn from active, inactive

# count of solved cases: 2
compound | group-label
C[C@]12CC[C@H]3[C@@H](CC=C4C[C@@H](O)CC[C@@]43C)[C@@H]1CC[C@@H]2O | inactive
CCC1(CC)C(=O)NC(=O)NC1=O | inactive

Task: Returns: the outcome recorded for CCC1(c2ccccc2)CCC(=O)NC1=O (configuration not stated) in this assay.
Output: active

Task: Returns: the outcome recorded for Cc1ccc(N=CN(C)C=Nc2ccc(C)cc2C)c(C)c1 in this assay.
Output: inactive

Task: Returns: the outcome recorded for NC(=O)CN1CCCC1=O in this assay.
Output: inactive

Task: Returns: the outcome recorded for CC(C)[N+](C)(CCC(C(N)=O)(c1ccccc1)c1ccccc1)C(C)C in this assay.
Output: inactive

Task: Returns: the outcome recorded for OC(O)C(Cl)(Cl)Cl in this assay.
Output: inactive

Task: Returns: the outcome recorded for C=CCOC(Cn1ccnc1)c1ccc(Cl)cc1Cl (configuration not stated) in this assay.
Output: active

Task: Returns: the outcome recorded for CCN(CC)C(C)C(=O)c1ccccc1 (configuration not stated) in this assay.
Output: inactive

Task: Returns: the outcome recorded for CCCCCCCCC(=O)NCc1ccc(O)c(OC)c1 in this assay.
Output: inactive

Task: Returns: the outcome recorded for O=C(CCCN1CCC(n2c(=O)[nH]c3ccccc32)CC1)c1ccc(F)cc1 in this assay.
Output: active

Task: Returns: the outcome recorded for Clc1ccc(CO/N=C(\Cn2ccnc2)c2ccc(Cl)cc2Cl)c(Cl)c1 in this assay.
Output: active

###

condition-context: Ebola virus entry assay, reporter ratio channel; Channel type: primary
Calls of active or inactive are those of the source. The rule behind the calls is not given here.
Returns: one label drawn from active, inactive

# count of solved cases: 5
molecule | group-label
CC(C)OC(=O)C(C(=O)OC(C)C)=C1SC=CS1 | inactive
CC(=O)OC1(c2ccccc2)CCN(CCc2ccccc2)CC1 | active
CN1CCN(CCC(=O)N2c3ccccc3Sc3ccc(C(F)(F)F)cc32)CC1 | active
N/C(=N\N=C\c1ccc(Cl)cc1)N/N=C/c1ccc(Cl)cc1 | active
CCN1CCCC1CNC(=O)C(O)(c1ccccc1)c1ccccc1 (stereo unspecified) | active

Task: Returns: the outcome recorded for CC(C)C(=O)OCc1cccc(OC(=O)[C@@H]2N3C(=O)[C@@H](NC(=O)Cc4ccccc4)[C@H]3SC2(C)C)c1 in this assay.
Output: inactive

Task: Returns: the outcome recorded for Nc1ccc(Cl)cc1C(=O)c1ccccc1F in this assay.
Output: active

###

assay-name: Primary qHTS for inhibitors of SARS-S pseudo-typed particle cell entry (AID 1479145); further: nearly all actives have a fitted effect of over 45% in size
condition-context: SARS-S pseudotyped particle cell entry, luciferase reporter; series mostly up to 57.1 µM
Inconclusive results are not listed. Calls of active or inactive are those of the source. The call rests on the fitted dose curve.
measured-parameter: outcome

compound | recorded-measurement
COC(=O)C1=C(C)NC(COC(N)=O)=C(C(=O)OC(C)C)C1c1cccc(Cl)c1Cl (centres undefined) | inactive
CCC(=O)O[C@]1(C(=O)CCl)[C@@H](C)C[C@H]2[C@@H]3CCC4=CC(=O)C=C[C@]4(C)[C@@]3(F)[C@@H](O)C[C@@]21C | inactive
CCCC(=O)O[C@]1(C(=O)CCl)[C@@H](C)C[C@H]2[C@@H]3CCC4=CC(=O)C=C[C@]4(C)[C@@]3(F)C(=O)C[C@@]21C | inactive
CNC(C)Cc1ccccc1OC (centres undefined) | inactive

The reported numbers originate from PubChem BioAssay (NCATS).
